Recorded Ki values (Melanin-concentrating hormone receptor 1 (Homo sapiens, UniProt Q99705)) are given below.
Measure name: Ki (nM)

1) COc1cc(-n2nnc3cc(-c4ccccc4)ccc3c2=O)ccc1OCCN1CCCC1; 25.1
2) COc1cc(-n2nnc3cc(Oc4ccccc4)ccc3c2=O)ccc1OCCN1CCCC1; 79.4
3) COc1cc(-n2cnc3cc(Oc4ccccc4)ccc3c2=O)ccc1OCCN1CCCC1; 50.1
4) O=C(Nc1ccc(OCCN2CCCC2)cc1)c1ccc2c(c1)CCc1ccccc1-2; 1000
5) COc1cc(NC(=O)c2ccc(C3CCCCC3)cc2)ccc1OC[C@H]1CCCN1C; 79.4
6) COc1cc(-n2cnc3ccc(Oc4ccccc4)cc3c2=O)ccc1OCCN1CCCC1; 316

a: COc1cc(-n2cnc3cc(-c4ccccc4)ccc3c2=O)ccc1OCCN1CCCC1
b: COc1cc(N(C)C(=O)c2ccc3oc4ccccc4c3c2)ccc1OCCN(C(C)C)C(C)C
// compare measured Ki between a and b ; output the lower one // output: label of the selected item
a

1: COc1cc(-n2cnc3sc(-c4ccccc4)cc3c2=O)ccc1OCCN1CCCC1
2: COc1cc(N2Cc3ccc(-c4ccccc4)cc3C2=O)ccc1OCCN(C(C)C)C(C)C
Would you mind telling me which has the lower recorded Ki between 1 and 2 ? Kindly give the label for the entry you pick.
2

Origin of measurements: ChEMBL document CHEMBL1149492
